# Tested on: G-clamp-N3 (biotin conjugate)
# ASSAY_PROCEDURE: pull-down binding Z-score (relative to library population); higher = stronger binding
# TEST_CONTEXT: RNA library: Library-1 (pre-miRNA loops + repeats)
Entry flag: Met if pull-down binding Z-score reaches 0.1; Not met if it does not.

Ask | Is pull-down binding Z-score for CGUUCGCUUUAUUUAUGGCGCACA [hsa-mir-323a] at or above 0.1?
Reply | Not met

Ask | Answer whether pull-down binding Z-score of CAAUAGUAAAAAGACAACCUGUUG [hsa-mir-3133] is greater than or equal to 0.1.
Reply | Met

Ask | Hi, just wondering whether GACCUGGAUGUGUAGGAGCUAAGACACACUCCAGGGG [hsa-mir-920] shows pull-down binding Z-score of 0.1 or higher.
Reply | Met

Ask | Is the recorded value of pull-down binding Z-score equal to or greater than 0.1 for this sequence? CGCUGCUGGCUGCCUUCCAGCG [hsa-mir-4533]
Reply | Not met

Ask | Test whether the sequence CCGUUUAAAAAGGCAUCUCCAAG [hsa-mir-608] records pull-down binding Z-score of 0.1 or higher.
Reply | Not met

Ask | Hi team, for UGUCUUGUAGCCAGGAUAUUGUUUUAAAGAA [hsa-mir-4668] , is the recorded pull-down binding Z-score at or above 0.1?
Reply | Not met

Ask | Textbook exercise: given the entry UCUGUUGCUUGAAAGAAGAGA [hsa-mir-526a-1] , state whether its pull-down binding Z-score is greater than or equal to 0.1.
Reply | Met

Ask | Dear colleague, could you confirm whether AGAAAAUUUUUCUCCAAAGUUUUCU [hsa-mir-4659b] has pull-down binding Z-score at or above 0.1?
Reply | Not met

Ask | pull-down binding Z-score >= 0.1 for CUGUGAUAACAACUCAG [hsa-mir-4705] ?
Reply | Not met

Ask | I'd appreciate it if you could say whether CCGUAUAUAUAUAUAUAUAUAUAUAGAUAUCUCCAUAUAUAUGG [hsa-mir-620] has pull-down binding Z-score at least equal to 0.1.
Reply | Met

Ask | Quick check: does ACUAAUUUUUCCACUAGUUAGU [hsa-mir-4424] have pull-down binding Z-score greater than or equal to 0.1?
Reply | Not met

Ask | Answer whether pull-down binding Z-score of UGAGGUACUUCCUUC [hsa-mir-1205] is greater than or equal to 0.1.
Reply | Not met

Ask | Could you verify whether the entry UAUAGUGUGUUUGAUUUGCACUGUA [hsa-mir-4703] shows pull-down binding Z-score of no less than 0.1?
Reply | Met

Ask | Exam item: decide whether the reported pull-down binding Z-score for GAGUUUGGGCAGCUCAGGCAAACC [hsa-mir-181c] is at least 0.1.
Reply | Met

Ask | Textbook exercise: given the entry CUAGUAUGUCUCAUCCCCUACUAG [hsa-mir-151a] , state whether its pull-down binding Z-score is greater than or equal to 0.1.
Reply | Not met

Ask | Reported pull-down binding Z-score reaches at least 0.1 for GCCAGUGUGUAAAAUGAGAACUGAUA [hsa-mir-3074] ?
Reply | Met

Ask | Quick check: does UCAAACAAGUUUCCAAAUUGUUUGA [hsa-mir-488] have pull-down binding Z-score greater than or equal to 0.1?
Reply | Not met

Ask | // inclusive: pull-down binding Z-score at least 0.1? input: UUGGUCUUUCCCCUGUGGUCCCAA [hsa-mir-2909]
Reply | Not met

Ask | Item ACGUCCAGUGGUGCAGAGGUAAUGGACGU [hsa-mir-1306] with pull-down binding Z-score of 0.1 or above?
Reply | Met

Ask | State whether the measured pull-down binding Z-score reaches 0.1, counting equality as reaching it, for CUCUGAUGUAAUUAGGU [hsa-mir-563]
Reply | Not met

Ask | Form field: pull-down binding Z-score at least 0.1? Entry: GAUUGAAGUUGAAUAGUGC [hsa-mir-3161]
Reply | Met

Ask | hey, is pull-down binding Z-score for this one >= 0.1? CUUUGUGAUUUUAUGAGAACAAAG [hsa-mir-3173]
Reply | Met

Ask | API: above_or_equal(metric=pull-down binding Z-score, cutoff=0.1) for item CUUUCUGUUGUCUGAAAGAAAAGAAAA [hsa-mir-522]
Reply | Not met

Ask | Hi, just wondering whether AGAGUCCUGUUGUUGUAAGAUAGUGUCU [hsa-mir-550a-3] shows pull-down binding Z-score of 0.1 or higher.
Reply | Met
